Target: human estrogen receptor (hER) (Homo sapiens, UniProt P03372)
Sequence (P03372 1-595): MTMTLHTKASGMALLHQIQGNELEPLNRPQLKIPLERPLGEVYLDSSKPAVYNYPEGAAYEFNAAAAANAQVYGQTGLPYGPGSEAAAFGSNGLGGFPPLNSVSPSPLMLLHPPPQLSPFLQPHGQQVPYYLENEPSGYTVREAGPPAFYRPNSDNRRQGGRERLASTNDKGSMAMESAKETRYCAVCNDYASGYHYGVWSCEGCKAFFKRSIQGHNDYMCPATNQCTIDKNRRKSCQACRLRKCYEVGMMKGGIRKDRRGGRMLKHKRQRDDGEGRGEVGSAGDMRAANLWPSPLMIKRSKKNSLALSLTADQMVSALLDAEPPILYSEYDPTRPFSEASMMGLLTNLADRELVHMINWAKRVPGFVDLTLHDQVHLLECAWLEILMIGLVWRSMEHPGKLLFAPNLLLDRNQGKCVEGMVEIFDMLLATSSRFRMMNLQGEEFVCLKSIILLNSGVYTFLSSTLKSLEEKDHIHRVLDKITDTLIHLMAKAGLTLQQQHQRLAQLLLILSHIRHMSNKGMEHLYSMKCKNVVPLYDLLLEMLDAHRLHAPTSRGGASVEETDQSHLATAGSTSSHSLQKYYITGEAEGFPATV
Test: hER cotransfection assay (potency ratio to hPR)
Format: cell-based
Conditions: receptor-selectivity potency ratio, cotransfection assays
Recorded hER EC50 or IC50/hPR EC50 by entry

[
  {
    "COMPOUND": "CC1=CC(C)(C)Nc2ccc3c(c21)C(c1cccc(Cl)c1)Oc1c(F)cc(F)cc1-3 (racemic) [Compound 41]",
    "hER EC50 or IC50/hPR EC50": ">1000"
  },
  {
    "COMPOUND": "CC1=CC(C)(C)Nc2ccc3c(c21)/C(=C/c1ccccc1)Oc1c(F)cc(F)cc1-3 [Compound 10]",
    "hER EC50 or IC50/hPR EC50": ">1000"
  },
  {
    "COMPOUND": "CC1=CC(C)(C)Nc2ccc3c(c21)C(c1ccccc1)Oc1c(F)cc(F)cc1-3 (racemic) [Compound 33]",
    "hER EC50 or IC50/hPR EC50": ">1000"
  },
  {
    "COMPOUND": "CC1=CC(C)(C)Nc2ccc3c(c21)C(c1cc2ccccc2s1)Oc1c(F)cc(F)cc1-3 (racemic) [Compound 63]",
    "hER EC50 or IC50/hPR EC50": 685
  },
  {
    "COMPOUND": "CC1=CC(C)(C)Nc2ccc3c(c21)/C(=C/c1ccncc1)Oc1c(F)cc(F)cc1-3 [Compound 14]",
    "hER EC50 or IC50/hPR EC50": ">1000"
  },
  {
    "COMPOUND": "CC#CC1Oc2c(F)cc(F)cc2-c2ccc3c(c21)C(C)=CC(C)(C)N3 (racemic) [Compound 74]",
    "hER EC50 or IC50/hPR EC50": ">1000"
  },
  {
    "COMPOUND": "CC1=CC(C)(C)Nc2ccc3c(c21)/C(=C/c1ccncc1C)Oc1c(F)cc(F)cc1-3 [Compound 20]",
    "hER EC50 or IC50/hPR EC50": ">1000"
  },
  {
    "COMPOUND": "COc1ccc(F)cc1/C=C1\\Oc2c(F)cc(F)cc2-c2ccc3c(c21)C(C)=CC(C)(C)N3 [Compound 26]",
    "hER EC50 or IC50/hPR EC50": ">1000"
  },
  {
    "COMPOUND": "CC1=CC(C)(C)Nc2ccc3c(c21)C(c1ccc(Cl)c(C)c1)Oc1c(F)cc(F)cc1-3 (racemic) [Compound 37]",
    "hER EC50 or IC50/hPR EC50": ">1000"
  }
]
